Assign reverse-splicing fitness to each entry below.
B1: Azoarcus group I ribozyme (parent)
chain: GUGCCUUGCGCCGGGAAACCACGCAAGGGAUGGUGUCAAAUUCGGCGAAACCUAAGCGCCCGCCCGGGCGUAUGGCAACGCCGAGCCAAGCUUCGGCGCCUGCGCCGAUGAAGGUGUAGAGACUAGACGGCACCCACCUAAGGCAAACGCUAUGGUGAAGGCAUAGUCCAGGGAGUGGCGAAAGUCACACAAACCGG

variants of: B1; assay: reverse-splicing fitness (ratio to wild type); higher = more active; in vitro selection; Mg2+ level not given

Recorded results for 3 variants are shown here.
A145G C150G C169U U176A ... 0.0192
A120U A145U C150G C169A U176G ... 0.00241
A145G C150G C169U U176G ... 0.00808

Take each entry in turn and give its reverse-splicing fitness.
1. C82G A111C A120U A145U C150U C169G U176C
2. C82U A120G A145G C169G U176A
3. A120U A145U C169U
4. C82A A111C A120U A145U C169A U176A

Output:
0.00346
0.0223
0.261
0.00312
